test system: LOX IMVI melanoma; assay: NCI-60 one-dose screen, 48 h; conditions: 10 µM unless noted
This is part of a sample that, as a whole, favours compounds with a hit. Of some 83,000 tested, about 20% had one in any assay. Activity calls are given as the source filed them. The calls were made as follows: active = growth percent below 10; inactive = the rest.
Outcome codes: t for active, f for inactive

| compound | class |
| --- | --- |
| Cc1ccc(S(=O)c2ccc([N+](=O)[O-])c3nonc23)cc1 (stereo not drawn) | f |
| COc1ccc(/C=C/C(=O)c2ccc3cc(OC)c(OC)cc3c2)cc1OC | t |
| COc1cc2c(cc1OC)C(=O)C(CC1CCN(C(=O)Nc3ccc(C)cc3)CC1)C2 (stereo not drawn) | f |
| CCOc1ccc2c(c1)CN(Cc1ccc(Cl)cc1)CO2 | f |
| O=c1oc2ccc(I)cc2c(=O)n1-c1ccc(Cl)cc1F | f |
| O=C(NC1CCCCC1)C(c1cccs1)N(CCc1ccccc1)C(=O)c1ccco1 (stereo not drawn) | f |
| CCOC(=O)c1cnc2c(C)cccc2c1Nc1ccc(C(C)=O)cc1 | t |
| Fc1cccc(COc2ccc(Nc3ncnc4onc(-c5ccccc5)c34)cc2)c1 | f |
| Clc1ccc(Nc2scc3[n+]2CCC3)cc1 | f |
| COc1ccc(/C=c2\sc3n(c2=O)NC2C(N=3)N(C)C(=O)N2C)cc1 (stereo not drawn) | f |
| CN(O)c1nc(N(C)O)nc(N2CCOCC2)n1 | f |
| CCOC(=O)c1c2c(n3cccc(Cl)c13)C(=O)c1ncccc1C2=O | f |
| COc1ccc(C2=C(c3cccc(OC)c3)C(=O)c3ccc(C)nc3C2=O)cc1 | f |
| CN(C)c1ccc(N=Cc2ccc(N3CCOCC3)cc2)cc1 | f |
| COc1ccc(/C=C2/SC(=O)N(CC(=O)N3CCN(c4cc5c(cc4F)c(=O)c(C(=O)O)cn5C4CC4)CC3)C2=O)cc1 | f |
| CC(=O)O[C@@H]1/C=C/C(=O)N[C@@H](C)CCC/C=C/[C@@H]2CCC[C@H]21 | f |
| CC(=O)n1cc(-c2c[nH]c3ccccc23)c(-c2ccc(Cl)cc2)n1 | f |
| O=c1nc2sc3nc4ccccc4cc3cc-2s1 | f |
| O=C(CCc1nnc2sc(COc3ccccc3)nn12)c1nc2ncccc2[nH]1 | f |
| O=S1(=O)N(Cc2ccccc2)[C@@H](Cc2ccccc2)C2O[C@H]2[C@H](Cc2ccccc2)N1Cc1ccccc1 (stereo partly drawn) | f |
| COc1c(B(O)O)cccc1-c1nc2ccc3[nH]ncc3c2c2c1C1CCC2C1 (stereo not drawn) | f |
| C=C(C)CCC(C)N1CCC(N2CCC(C(=O)NCCc3ccccc3)CC2)CC1 (stereo not drawn) | f |
| COc1ccc(C)c2sc(N(Cc3cccnc3)C(=O)c3ccc(C#N)cc3)nc12 | t |
| CC1=CCC(OC(=O)C(C)(C)CCC(O)(C(=O)OC2(C(C)C)CCC3(C)OC3C2)C(C)C)(C(C)C)CC1 (stereo not drawn) | t |
| O=C1N=c2ccccc2=C1c1sc(=Nc2ccccc2)n(Nc2ccccc2)c1O | f |
| COc1cc(/C(C#N)=C/c2nc3c(N4CCOCC4)nc(Cl)nc3n2C)cc(OC)c1OC | t |
| O=C1c2cc(I)ccc2Oc2cc([N+](=O)[O-])ccc2N1c1ccc(Cl)cc1F | f |
| COc1ccc(Nc2nc(N/N=C/c3ccc(O)cc3)nc(Nc3ccc([N+](=O)[O-])cc3)n2)cc1 | f |
